Tested on: MCF7
experiment-notes: Estrogenic activity in human MCF7 cells assessed as cell proliferation at 1 uM by MTS assay relative to basal level
Format: ADME, cell-based
measurement-conditions: mcf7, 1 µM
Is Activity at least 20%? Then Satisfied. If not, Not satisfied.

Please tell me: is the molecule CCCN(Cc1ccccc1)c1ccc(C(=O)N2CCc3ccc(O)cc3C2)cc1 at or over 20% in terms of Activity?
Not satisfied

Please tell me: is the molecule CN(C)CCN(CCN(C)C)c1ccc(C(=O)N2CCc3ccc(O)cc3C2)cc1 at or over 20% in terms of Activity?
Not satisfied

Please tell me: is the molecule CN(C)CCN(Cc1ccccc1)c1cccc(C(=O)N2CCc3ccc(O)cc3C2)c1 at or over 20% in terms of Activity?
Satisfied

Please tell me: is the molecule CN(CCCN1CCCCC1)c1cccc(C(=O)N2CCc3ccc(O)cc3C2)c1 at or over 20% in terms of Activity?
Not satisfied

Please tell me: is the molecule CN(C)CCN(Cc1ccccc1)c1ccc(C(=O)N2CCc3ccc(O)cc3C2)cc1 at or over 20% in terms of Activity?
Not satisfied

Please tell me: is the molecule CC(C)CCN(CCC(C)C)c1cccc(C(=O)N2CCc3ccc(O)cc3C2)c1 at or over 20% in terms of Activity?
Not satisfied

Please tell me: is the molecule CN(CCCN1CCCCC1)c1ccc(C(=O)N2CCc3ccc(O)cc3C2)cc1 at or over 20% in terms of Activity?
Not satisfied

Please tell me: is the molecule CCN(Cc1cccc(Br)c1)c1ccc(C(=O)N2CCc3ccc(O)cc3C2)cc1 at or over 20% in terms of Activity?
Not satisfied

Please tell me: is the molecule O=C(c1ccc(N(CCCO)Cc2ccccc2)cc1)N1CCc2ccc(O)cc2C1 at or over 20% in terms of Activity?
Not satisfied

Please tell me: is the molecule O=C(c1cccc(N2CCc3ccccc3C2)c1)N1CCc2ccc(O)cc2C1 at or over 20% in terms of Activity?
Not satisfied

Please tell me: is the molecule CC(C)CCN(CCC(C)C)c1ccc(C(=O)N2CCc3ccc(O)cc3C2)cc1 at or over 20% in terms of Activity?
Not satisfied

Please tell me: is the molecule O=C(c1cccc(N(CCCO)Cc2ccccc2)c1)N1CCc2ccc(O)cc2C1 at or over 20% in terms of Activity?
Satisfied

Please tell me: is the molecule CN(C)CCN(CCN(C)C)c1cccc(C(=O)N2CCc3ccc(O)cc3C2)c1 at or over 20% in terms of Activity?
Satisfied

---

Test system: MCF7
experiment-notes: Estrogenic activity in human MCF7 cells assessed as cell proliferation at 0.1 uM by MTS assay relative to basal level
Assay type: ADME, cell-based
measurement-conditions: mcf7, 0.1 µM
For each entry below, report its Activity value.
Answer with a number only, understood to be in %.

Recorded result, O=C(c1cccc(N2CCc3ccccc3C2)c1)N1CCc2ccc(O)cc2C1 , Activity: 0

Recorded result, CN(C)CCN(Cc1ccccc1)c1cccc(C(=O)N2CCc3ccc(O)cc3C2)c1 , Activity: 7.4

Recorded result, CCN(Cc1cccnc1)c1cccc(C(=O)N2CCc3ccc(O)cc3C2)c1 , Activity: 0

Recorded result, CN(C)CCN(CCN(C)C)c1ccc(C(=O)N2CCc3ccc(O)cc3C2)cc1 , Activity: 0

Recorded result, CCCN(Cc1ccccc1)c1ccc(C(=O)N2CCc3ccc(O)cc3C2)cc1 , Activity: 0

Recorded result, CN(C)CCN(CCN(C)C)c1cccc(C(=O)N2CCc3ccc(O)cc3C2)c1 , Activity: 14.6

Recorded result, O=C(c1cccc(N(Cc2ccccc2)Cc2ccco2)c1)N1CCc2ccc(O)cc2C1 , Activity: 63.3

Recorded result, CCN(Cc1ccc(Br)cc1)c1ccc(C(=O)N2CCc3ccc(O)cc3C2)cc1 , Activity: 10.6

Recorded result, CN(CCN1CCCCC1)c1ccc(C(=O)N2CCc3ccc(O)cc3C2)cc1 , Activity: 4.6

Recorded result, CCN(Cc1ccc(F)cc1)c1cccc(C(=O)N2CCc3ccc(O)cc3C2)c1 , Activity: 31.9

Recorded result, CCN(Cc1cccnc1)c1ccc(C(=O)N2CCc3ccc(O)cc3C2)cc1 , Activity: 2

Recorded result, CCN(Cc1ccc(F)cc1)c1ccc(C(=O)N2CCc3ccc(O)cc3C2)cc1 , Activity: 0

Recorded result, CCCN(Cc1ccccc1)c1cccc(C(=O)N2CCc3ccc(O)cc3C2)c1 , Activity: 0

---

assay-target: Steryl-sulfatase (Homo sapiens)
experiment-notes: Inhibition of STS (unknown origin) expressed in HEK-293 cells assessed as transformation of [3H]-E1S into E1 at 0.1 uM by […]
Format: cell-based
measurement-conditions: HEK293
Is inhibition at least 10%? Then MET. If not, NOT MET.

Please tell me: is the compound NS(=O)(=O)Oc1ccc2c(c1)CN(C(=O)c1cccc(N3CCSCC3)c1)CC2 at or over 10% in terms of inhibition?
NOT MET

Please tell me: is the compound NS(=O)(=O)Oc1ccc2c(c1)CN(C(=O)c1ccc(N(Cc3ccccc3)Cc3ccco3)cc1)CC2 at or over 10% in terms of inhibition?
MET

Please tell me: is the compound NS(=O)(=O)Oc1ccc2c(c1)CN(C(=O)c1ccc(N3CCOCC3)cc1)CC2 at or over 10% in terms of inhibition?
MET

Please tell me: is the compound CN(CCN1CCCCC1)c1ccc(C(=O)N2CCc3ccc(OS(N)(=O)=O)cc3C2)cc1 at or over 10% in terms of inhibition?
NOT MET

Please tell me: is the compound CN(C)CCN(CCN(C)C)c1cccc(C(=O)N2CCc3ccc(OS(N)(=O)=O)cc3C2)c1 at or over 10% in terms of inhibition?
NOT MET

Please tell me: is the compound CCN(Cc1ccc(F)cc1)c1cccc(C(=O)N2CCc3ccc(OS(N)(=O)=O)cc3C2)c1 at or over 10% in terms of inhibition?
MET

Please tell me: is the compound NS(=O)(=O)Oc1ccc2c(c1)CN(C(=O)c1cccc(N3CCC(N4CCCCC4)CC3)c1)CC2 at or over 10% in terms of inhibition?
NOT MET

Please tell me: is the compound NS(=O)(=O)Oc1ccc2c(c1)CN(C(=O)c1cccc(N(Cc3ccccc3)Cc3ccco3)c1)CC2 at or over 10% in terms of inhibition?
MET

Please tell me: is the compound CCN(Cc1cccc(Br)c1)c1cccc(C(=O)N2CCc3ccc(OS(N)(=O)=O)cc3C2)c1 at or over 10% in terms of inhibition?
MET

---

assay-target: Steryl-sulfatase (Homo sapiens)
Sequence (whole entry): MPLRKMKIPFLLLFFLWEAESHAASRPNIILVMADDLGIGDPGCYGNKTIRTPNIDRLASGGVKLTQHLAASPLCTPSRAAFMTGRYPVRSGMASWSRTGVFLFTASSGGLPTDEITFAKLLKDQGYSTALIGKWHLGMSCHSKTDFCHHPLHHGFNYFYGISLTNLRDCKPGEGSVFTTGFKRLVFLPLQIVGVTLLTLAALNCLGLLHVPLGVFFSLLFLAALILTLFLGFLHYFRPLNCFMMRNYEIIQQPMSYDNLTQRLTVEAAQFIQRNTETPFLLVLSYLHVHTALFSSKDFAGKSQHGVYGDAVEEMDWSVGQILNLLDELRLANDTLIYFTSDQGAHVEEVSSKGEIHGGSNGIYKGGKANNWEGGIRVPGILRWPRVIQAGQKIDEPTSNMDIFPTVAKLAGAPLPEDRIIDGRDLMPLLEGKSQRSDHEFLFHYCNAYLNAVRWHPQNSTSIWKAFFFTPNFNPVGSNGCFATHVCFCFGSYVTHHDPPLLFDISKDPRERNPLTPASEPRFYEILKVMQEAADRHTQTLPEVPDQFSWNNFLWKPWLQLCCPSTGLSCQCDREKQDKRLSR
experiment-notes: Inhibition of STS (unknown origin) expressed in HEK-293 cells assessed as transformation of [3H]-E1S into E1 at 1 uM by […]
Assay type: cell-based
measurement-conditions: HEK293
property: inhibition (%)
Answer with a number only, understood to be in %.

Recorded result, CCCN(Cc1ccccc1)c1cccc(C(=O)N2CCc3ccc(OS(N)(=O)=O)cc3C2)c1 , inhibition: 67.4

Recorded result, CCN(Cc1ccc(F)cc1)c1ccc(C(=O)N2CCc3ccc(OS(N)(=O)=O)cc3C2)cc1 , inhibition: 91.2

Recorded result, CCN(Cc1ccccc1)c1cccc(C(=O)N2CCc3ccc(OS(N)(=O)=O)cc3C2)c1 , inhibition: 69

Recorded result, CCN(Cc1ccncc1)c1cccc(C(=O)N2CCc3ccc(OS(N)(=O)=O)cc3C2)c1 , inhibition: 52.8

Recorded result, CCN(Cc1ccccn1)c1ccc(C(=O)N2CCc3ccc(OS(N)(=O)=O)cc3C2)cc1 , inhibition: 87.7

Recorded result, NS(=O)(=O)Oc1ccc2c(c1)CN(C(=O)c1ccc(N3CCC(Cc4ccccc4)CC3)cc1)CC2 , inhibition: 81.3

Recorded result, NS(=O)(=O)Oc1ccc2c(c1)CN(C(=O)c1cccc(N3CCCCC3)c1)CC2 , inhibition: 11.9

Recorded result, NS(=O)(=O)Oc1ccc2c(c1)CN(C(=O)c1cccc(N(CCCO)Cc3ccccc3)c1)CC2 , inhibition: 37.3

Recorded result, CN(CCN1CCCCC1)c1ccc(C(=O)N2CCc3ccc(OS(N)(=O)=O)cc3C2)cc1 , inhibition: 26.8

Recorded result, CN(CCCN1CCCCC1)c1ccc(C(=O)N2CCc3ccc(OS(N)(=O)=O)cc3C2)cc1 , inhibition: 40.7

Recorded result, NS(=O)(=O)Oc1ccc2c(c1)CN(C(=O)c1ccc(N3CCc4ccccc4C3)cc1)CC2 , inhibition: 83

Recorded result, NS(=O)(=O)Oc1ccc2c(c1)CN(C(=O)c1cccc(N3CCN(c4ncccn4)CC3)c1)CC2 , inhibition: 24.4

Recorded result, NS(=O)(=O)Oc1ccc2c(c1)CN(C(=O)c1ccc(N3CCC(N4CCCCC4)CC3)cc1)CC2 , inhibition: 53.7

Recorded result, NS(=O)(=O)Oc1ccc2c(c1)CN(C(=O)c1ccc(N3CCOCC3)cc1)CC2 , inhibition: 50.6

Recorded result, CCN(Cc1ccccn1)c1cccc(C(=O)N2CCc3ccc(OS(N)(=O)=O)cc3C2)c1 , inhibition: 19.9

Recorded result, CN1CCN(c2cccc(C(=O)N3CCc4ccc(OS(N)(=O)=O)cc4C3)c2)CC1 , inhibition: 12.6

Recorded result, CCN(Cc1ccccc1)Cc1ccc(CN2CCc3ccc(OS(N)(=O)=O)cc3C2)cc1 , inhibition: 17

Recorded result, NS(=O)(=O)Oc1ccc2c(c1)CN(C(=O)c1cccc(N3CCc4ccccc4C3)c1)CC2 , inhibition: 50.2

Recorded result, NS(=O)(=O)Oc1ccc2c(c1)CN(C(=O)c1cccc(N(Cc3ccccc3)Cc3ccco3)c1)CC2 , inhibition: 90.5

Where these numbers come from: ChEMBL document CHEMBL3132826
